# System: DLD-1 colon
# Experiment description: NCI tumour cell line growth inhibition, 48 h
# TGI per entry
Quantity: TGI

{"Compound": "O=C(Nc1ccc(Cl)c(Cl)c1)C(=O)C(C(=O)c1ccccc1-c1ccccc1)C1OC(=O)c2ccccc21 (configuration not stated)", "Quantity": "TGI", "Result": "30.1 µM"}
{"Compound": "Clc1cccc(-c2nnc(-c3nn(-c4ccccc4)c4nc5ccccc5nc34)o2)c1", "Quantity": "TGI", "Result": "> 100 µM"}
{"Compound": "CCOc1ccccc1N=Nc1c(-c2ccccc2)nn(C(=O)CC(=O)Nc2cccc(C)c2)c1-c1ccccc1", "Quantity": "TGI", "Result": "> 100 µM"}
{"Compound": "Cn1c2ccccc2c(=O)c2c(O)cc3c(c21)C=CC(C)(C)O3", "Quantity": "TGI", "Result": "> 25 µM"}
{"Compound": "O=C(c1ccc(Cl)cc1)c1ccc(OCCCOc2ccc(C(=O)c3ccc(Cl)cc3)cc2Cl)c(Cl)c1", "Quantity": "TGI", "Result": "> 100 µM"}
{"Compound": "Cc1cc(=O)n(-c2cc3cccccc-3n2)[nH]1", "Quantity": "TGI", "Result": "> 100 µM"}
{"Compound": "N#CC(C(=O)/C(=N\\NC(N)=O)C(C#N)c1ccccc1)c1ccccc1 (configuration not stated)", "Quantity": "TGI", "Result": "> 100 µM"}
{"Compound": "COC1OC2COC(C)(C)OC2C(OC(C)=O)C1NC(=O)N(CCCl)N=O (configuration not stated)", "Quantity": "TGI", "Result": "> 100 µM"}
{"Compound": "CC(C)C1NC(=O)CC(c2ccccc2)N(N=O)C1c1ccccc1 (configuration not stated)", "Quantity": "TGI", "Result": "> 100 µM"}
{"Compound": "CC1CCC2CC(=O)OC([C@@H]3C(=O)O[C@@H](C4=CCCC4)C4C(C)CCC43)C12 (some centres not stated)", "Quantity": "TGI", "Result": "> 100 µM"}
{"Compound": "CC(C)CCCCCCCCCCCCC(=O)NCC(=O)NC1C(O)C(O)C(Nc2ncnc3nc[nH]c23)OC1C(O)CO (configuration not stated)", "Quantity": "TGI", "Result": "3.83 µM"}
{"Compound": "O=C(/C=C\\c1cccc2ccccc12)c1ccc(Cl)cc1Cl", "Quantity": "TGI", "Result": "40.8 µM"}

----------
# System: HCT-15 colon
# Experiment description: NCI tumour cell line growth inhibition, 48 h
# TGI per entry

{"Molecule": "C#CCN(c1ccc(C(=O)N[C@@H](CCC(=O)N[C@H](CCC(=O)O)C(=O)O)C(=O)O)cc1)C1CCc2cc3nc(CO)[nH]c(=O)c3cc21 (some centres not stated)", "TGI": "> 100 µM"}
{"Molecule": "CCCCCC/C=C\\CCCCCCCCCC1=C(CN2CCN(C)CC2)C(=O)C=C(OC)C1=O", "TGI": "7.87 µM"}
{"Molecule": "CN(/N=C/c1ccnc2ccccc12)c1c([N+](=O)[O-])cc([N+](=O)[O-])cc1[N+](=O)[O-]", "TGI": "> 100 µM"}
{"Molecule": "O=C(CCN1CCCCC1)N1CCc2c([nH]c3ccccc23)C1c1cccnc1 (configuration not stated)", "TGI": "> 100 µM"}
{"Molecule": "O=C1C2C3CC(C4C5C=CC(C5)C34)C2C2C3CC(C12)C1C2C=CC(C2)C31 (configuration not stated)", "TGI": "> 100 µM"}
{"Molecule": "CCc1nc2ccc(N=Nc3c(O)ccc4ccccc34)cc2[nH]1", "TGI": "33.4 µM"}
{"Molecule": "CC1CCC2CC(=O)OC([C@@H]3C(=O)O[C@@H](C4=CCCC4)C4C(C)CCC43)C12 (some centres not stated)", "TGI": "> 100 µM"}
{"Molecule": "O=C(NCC1CCCO1)c1ccc(NC2=C(Cl)C(=O)N(Cc3ccccc3)C2=O)cc1 (configuration not stated)", "TGI": "62.3 µM"}
{"Molecule": "CC(=O)O[C@H]1C(=O)[C@@]2(C)[C@H]([C@H](OC(=O)c3ccccc3)[C@]3(O)C[C@H](OC(=O)[C@H](O)[C@@H](NC(=O)c4ccco4)c4ccccc4)C(C)=C1C3(C)C)[C@]1(OC(C)=O)CO[C@@H]1C[C@@H]2O", "TGI": "> 12.5 µM"}
{"Molecule": "CCCSc1ccc2[nH]c(N3C(=O)/C(=C/c4ccc(SC)cc4)N=C3c3ccccc3)cc2c1", "TGI": "> 50 µM"}
{"Molecule": "O=C(/C=C/c1ccccc1)Nc1ccccc1SCCCCl", "TGI": "> 100 µM"}
{"Molecule": "C=CCOC(=O)C1=C(C)NC2=N[C@H](CCCCCCCCC)C[C@@H]3CCC1N23 (some centres not stated)", "TGI": "56.2 µM"}
{"Molecule": "CCC(C)[C@@H](Nc1c(O)c2c(c(O)c1Cl)C(=O)C=CC2=O)C(=O)OC (some centres not stated)", "TGI": "> 10 µM"}
{"Molecule": "Cc1nc2c(o1)C(=Nc1ccccc1)c1nc(C)oc1C2=Nc1ccccc1", "TGI": "> 100 µM"}
{"Molecule": "Cc1cc(C)c(-c2c(N)cc(Br)cc2Br)c(N)c1", "TGI": "17.3 µM"}
{"Molecule": "CCCCCCCCCOCC(COP(=O)([O-])OCC[N+](C)(C)C)OC (configuration not stated)", "TGI": "> 100 µM"}
{"Molecule": "[B-][P+](CC[P+]1([B-])[C@@H](C)[C@@H](O)[C@H](O)[C@@H]1C)(c1ccccc1)c1ccccc1OC (some centres not stated)", "TGI": "33.3 µM"}
{"Molecule": "CNS(=O)(=O)NNS(=O)(=O)c1ccc(OC)cc1", "TGI": "> 100 µM"}
{"Molecule": "Clc1cccc(-c2nnc(-c3nn(-c4ccccc4)c4nc5ccccc5nc34)o2)c1", "TGI": "> 100 µM"}
{"Molecule": "COc1cc(C2c3cc4c(cc3C(OC(=O)C[n+]3ccccc3)C3COC(=O)C23)OCO4)cc(OC)c1OC (configuration not stated)", "TGI": "> 100 µM"}
{"Molecule": "CC1=CC(C)(C)NN1C1=NS(=O)(=O)c2ccccc2N1C", "TGI": "> 100 µM"}
{"Molecule": "Nc1ncnc2c1ncn2C1CCC(CP(=O)(O)O)C1 (configuration not stated)", "TGI": "> 100 µM"}
{"Molecule": "O=C1NN(Cc2ccccc2)C(=O)N2CCC[C@@H]12", "TGI": "> 100 µM"}
{"Molecule": "CSc1nc2c(c(=O)n1C)CN(C1CCCCC1)C(=O)C(c1ccccc1)N2 (configuration not stated)", "TGI": "> 100 µM"}
{"Molecule": "CCNC(=O)OCc1c(COC(=O)NCC)c(-c2ccc(Cl)c(Cl)c2)n2c1CCC2", "TGI": "36.9 µM"}
{"Molecule": "C=C(C(=O)OC)[C@@H]1C[C@@H](OC(C)=O)C2=C[C@H](C[C@@]3(C)O[C@@H]3C3=CC(C)=C(O3)[C@H]1OC(C)=O)OC2=O", "TGI": "> 100 µM"}
{"Molecule": "O=C(/C=C/c1cccc([N+](=O)[O-])c1)c1ccc([N+](=O)[O-])cc1", "TGI": "> 100 µM"}
{"Molecule": "O=C(N/N=C/c1cc(Br)cc(Br)c1[O-])c1ccccc1O.O=C(N/N=C/c1cc(Br)cc(Br)c1[O-])c1ccccc1O.[Zn+2]", "TGI": "14.4 µM"}
{"Molecule": "COc1ccc(/C=C2/SC(Nc3nc(-c4nc(NC5=NC(=O)/C(=C\\c6ccc(OC)cc6)S5)sc4C)c(C)s3)=NC2=O)cc1", "TGI": "7.82 µM"}
{"Molecule": "O=[N+]([O-])c1ccc(-n2nc3ccc4c(no[n+]4[O-])c3n2)cc1", "TGI": "> 100 µM"}
{"Molecule": "CCOC(=O)c1c(NC(=S)Nc2ccc(Cl)cc2)sc2c1CCN(C)C2", "TGI": "> 100 µM"}
{"Molecule": "CCCCCCCC/C=C/CCCCCCCC1=NC(C)(C)CN1CCO", "TGI": "3.16 µM"}
{"Molecule": "O=C1CCc2ccc(O)c(c2)Oc2ccc(cc2)C(Sc2ccccc2)CCO1 (configuration not stated)", "TGI": "29.9 µM"}
{"Molecule": "CCOC(=O)c1nc2cc(C(F)(F)F)ccc2nc1Nc1ccc(C(=O)OC)s1", "TGI": "> 100 µM"}
{"Molecule": "CC(=O)[C@H]1CCC/C=C/[C@@H]2C[C@H](O)C[C@H]2[C@H](O)/C=C/C(=O)O1", "TGI": "> 44.7 µM"}
{"Molecule": "O=C1/C(=C/c2ccc(Cl)cc2)CNC/C1=C\\c1ccc(Cl)cc1", "TGI": "2.6 µM"}
{"Molecule": "O=C(O)C1[O][Sb][O]C(C(=O)O)C1O (configuration not stated)", "TGI": "> 100 µM"}
